target: human noradrenaline transporter (hNET) (Homo sapiens, UniProt P23975); construct: expressed in transfected cells; host or cells: COS-7 cells (ATCC), transient transfection with metafectene; test: biochemical; assay type: binding; settings: Av IC50 Displacement of 3H-nisoxetine from hNET
Sequence (P23975 whole entry): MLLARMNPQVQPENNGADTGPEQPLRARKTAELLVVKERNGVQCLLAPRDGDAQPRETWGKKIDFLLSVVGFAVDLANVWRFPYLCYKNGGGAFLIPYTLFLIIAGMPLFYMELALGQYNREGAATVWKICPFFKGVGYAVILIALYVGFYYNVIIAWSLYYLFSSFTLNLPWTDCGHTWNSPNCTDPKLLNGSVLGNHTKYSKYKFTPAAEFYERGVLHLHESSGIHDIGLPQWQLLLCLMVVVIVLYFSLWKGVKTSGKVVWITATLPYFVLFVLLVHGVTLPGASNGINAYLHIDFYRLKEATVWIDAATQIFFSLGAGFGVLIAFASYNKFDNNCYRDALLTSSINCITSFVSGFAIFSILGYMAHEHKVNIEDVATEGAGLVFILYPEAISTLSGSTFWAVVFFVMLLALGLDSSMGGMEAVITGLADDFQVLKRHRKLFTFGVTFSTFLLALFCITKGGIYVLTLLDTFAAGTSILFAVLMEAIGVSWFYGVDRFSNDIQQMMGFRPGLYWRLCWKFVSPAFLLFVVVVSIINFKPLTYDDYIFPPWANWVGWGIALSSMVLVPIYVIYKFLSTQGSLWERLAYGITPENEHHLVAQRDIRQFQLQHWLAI
Residues, ends and D or L forms follow the SMILES beside them.
reported endpoint: IC50 (µM)
Give bare numbers, in µM.

IC50 for CC(C)C[C@@H]1NC(=O)[C@H](CCCCN)NC(=O)[C@H](Cc2ccc(O)cc2)NC(=O)CNC(=O)[C@@H]2CSSC[C@H](NC1=O)C(=O)N[C@@H](Cc1c[nH]cn1)C(=O)N1CCC[C@H]1C(=O)N[C@H](C(N)=O)CSSC[C@H](NC(=O)[C@@H](NC(=O)[C@H](CO)NC(=O)[C@@H](N)CC(N)=O)C(C)C)C(=O)N2 [compound 156] (HELM PEPTIDE1{N.S.V.C.C.G.Y.K.L.C.H.P.C.[am]}$PEPTIDE1,PEPTIDE1,4:R3-13:R3|PEPTIDE1,PEPTIDE1,5:R3-10:R3$$$V2.0) ?
4.27

Where do the numbers come from? From patent US7507717B2.
